test system: SK-MEL-2 melanoma; assay: NCI tumour cell line growth inhibition, 48 h
measurementName: TGI

{"columns": ["compound", "measurementName", "observedMeasurement"],
 "data": [
  ["CCN(CC)c1c(-c2c(OC(C)C)c(=O)c2=O)c(=O)n2ccsc2c1OC(C)=O", "TGI", "> 100 µM"],
  ["O=S(=O)(O)c1cc(O)c(N=NC2S(=O)(=O)OCCOS2(=O)=O)c2ccccc12", "TGI", "> 100 µM"],
  ["CC(NC(=O)c1ccc(Cl)c(Cl)c1)c1ccc(-c2ccccc2)cc1 (stereo unspecified)", "TGI", "> 100 µM"],
  ["CCCCOC(=O)Nc1ccc(S(=O)(=O)Nc2c(Cl)cccc2Cl)cc1", "TGI", "66.8 µM"],
  ["CC(C)NC1CCCCC2c3ccccc3C12O (stereo unspecified)", "TGI", "> 100 µM"],
  ["COc1nc2ncc([C@@H](OC(C)=O)[C@@H](COC(C)=O)OC(C)=O)nc2c(=O)n1C", "TGI", "> 100 µM"],
  ["O=S(=O)(c1ccccc1)N1CCC1c1ccccc1 (stereo unspecified)", "TGI", "> 100 µM"],
  ["[O-]c1ccccc1C=NCCN=Cc1ccccc1[O-].[O]=[U+2]=[O]", "TGI", "> 62.7 µM"],
  ["CC(C)(C)CNCCO", "TGI", "> 100 µM"],
  ["CCOc1ccc2c(c1)[n+]([O-])c(-c1ccccc1)c(N)[n+]2[O-]", "TGI", "> 100 µM"],
  ["CN(C)N1C(=C(C#N)C#N)C(c2ccccc2)CC1C#N (stereo unspecified)", "TGI", "> 100 µM"]
]}
